Reference source: patent US8748412B2

- STUDY SYSTEM: human GLP1R (Homo sapiens, UniProt P43220)
- Construct: expressed in transfected cells; host or cells: CHO cells (ATCC), transient transfection with pCMV-human GLP1R
- Sequence (P43220 24-463): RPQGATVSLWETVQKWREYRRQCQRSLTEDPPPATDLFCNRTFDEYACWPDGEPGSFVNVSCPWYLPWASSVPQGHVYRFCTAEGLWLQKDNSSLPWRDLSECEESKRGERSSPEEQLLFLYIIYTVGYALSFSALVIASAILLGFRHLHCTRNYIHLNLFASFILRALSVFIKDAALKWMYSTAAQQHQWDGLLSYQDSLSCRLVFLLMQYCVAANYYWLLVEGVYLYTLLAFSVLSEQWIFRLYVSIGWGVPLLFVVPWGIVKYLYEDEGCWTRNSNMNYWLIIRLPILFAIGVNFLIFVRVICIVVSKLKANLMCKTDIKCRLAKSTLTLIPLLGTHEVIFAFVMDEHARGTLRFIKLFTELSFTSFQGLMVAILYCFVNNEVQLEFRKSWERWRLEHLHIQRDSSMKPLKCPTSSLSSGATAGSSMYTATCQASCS
- EXPERIMENT DESCRIPTION: Human GLP-1 receptor transfected cell assay (MRE/CRE-luciferase reporter gene, agonist activity)
- Type: cell-based
- MEASUREMENT CONTEXT: 6 h; conc. 10 μM; percentage of the activity of the control; read-out: Agonist Activity
RESULT TYPE: activation at 10 µM

**Q:** Consider the molecule CC(C)(C)OC(=O)Nc1ccc(-c2nc(-c3ccc(CC(NC(=O)c4ccc(-c5ccc(F)cc5)s4)C(=O)O)cc3F)no2)cc1 (stereo not drawn) [Compound 11P] and give its measured activation at 10 µM.
**A:** 20 to 40%

**Q:** Consider the molecule Cc1ccc(CNC(=O)C(Cc2ccc(OC(=O)c3ccc(NC(=O)OC(C)(C)C)cc3)c(F)c2)c2nnn[nH]2)cc1 (stereo not drawn) [Compound 11D] and give its measured activation at 10 µM.
**A:** 20 to 40%

**Q:** Consider the molecule Cc1ccccc1-c1ccc(NC(=O)NC(Cc2ccc(-c3noc(-c4ccc(NC(=O)OC(C)(C)C)cc4)n3)c(F)c2)C(=O)O)nc1 (stereo not drawn) [Compound 13U] and give its measured activation at 10 µM.
**A:** > 60%

**Q:** Consider the molecule CC(C)(C)OC(=O)Nc1ccc(-c2nc(-c3ccc(CC(NC(=O)Nc4ccc(-c5ccccc5F)cn4)C(=O)O)cc3F)no2)cc1 (stereo not drawn) [Compound 13T] and give its measured activation at 10 µM.
**A:** > 60%

**Q:** Consider the molecule CC(C)(C)OC(=O)Nc1ccc(-c2nc(-c3ccc(CC(NC(=O)CN4CCN(C(=O)OC(C)(C)C)CC4)C(=O)O)cc3F)no2)cc1 (stereo not drawn) [Compound 11T] and give its measured activation at 10 µM.
**A:** 40 to 60%

**Q:** Consider the molecule CC(C)(C)OC(=O)Nc1ccc(-c2nc(-c3ccc(CC(NC(=O)Nc4cc(-c5ccc(F)c(Br)c5)n[nH]4)C(=O)O)cc3F)no2)cc1 (stereo not drawn) [Compound 13S] and give its measured activation at 10 µM.
**A:** > 60%
